Tested on: HIV-1 wild-type (R8) virus
Experiment: Viral KINetics in Green cells (VIKING) assay, HIV-1 replication in MT4-GFP reporter cells
Type: cell-based
Settings: Human immunodeficiency virus 1, 10% normal human serum, MT4-GFP cells, HIV-1 wild-type (R8); read-out: Viking (10% NHS), IC50

SMILES_STR	IC50 / nM
C#C[C@]1(CO)O[C@@H](n2ccc3c(N(C(=O)OCCCCCC)C(=O)OCCCCCC)nc(Cl)nc32)C[C@@H]1O	1370
C#C[C@]1(CO)O[C@@H](n2ccc3c(N)nc(Cl)nc32)C[C@@H]1OC(=O)Cc1ccc(Cl)cc1	5.1
C#C[C@]1(COC(=O)OCCCCC[C@@H]2SC[C@@H]3NC(=O)N[C@@H]32)O[C@@H](n2ccc3c(N)nc(Cl)nc32)C[C@@H]1OC(=O)OCCCCC[C@@H]1SC[C@@H]2NC(=O)N[C@@H]21	21
C#C[C@]1(COC(=O)Cc2ccc(F)cc2)O[C@@H](n2ccc3c(N)nc(Cl)nc32)C[C@@H]1O	2.3
C#C[C@]1(CO)O[C@@H](n2ccc3c(N)nc(Cl)nc32)C[C@@H]1OC(=O)CC1CCCCC1	8.5
C#C[C@]1(COC(=O)OCc2cc[nH]c(=O)c2)O[C@@H](n2ccc3c(N)nc(Cl)nc32)C[C@@H]1OC(=O)OCc1ccccc1	5.8
C#C[C@]1(COC(=O)OCc2ccc[nH]c2=O)O[C@@H](n2ccc3c(N)nc(Cl)nc32)C[C@@H]1O	3.9

---

Test system: HIV-1 wild-type (R8) virus
Assay: Viral KINetics in Green cells (VIKING) assay, HIV-1 replication in MT4-GFP reporter cells
Assay type: cell-based
Conditions: Human immunodeficiency virus 1, 10% normal human serum, MT4-GFP cells, HIV-1 wild-type (R8); read-out: Viking (10% NHS), IC50
pIC50: −log10 of the molar value.
Given measured pIC50, output y if it is greater than or equal to 8 and n if not.

>>> print(df.to_string())
                                   compound              assayed_system  category
0  C#C[C@]1(COC(=O)CCCC)O[C@@H](n2ccc3c(N)nc(Cl)nc32)C[C@@H]1OC(C)=O [Example 186]  HIV-1 wild-type (R8) virus         n
1  C#C[C@]1(CO)O[C@@H](n2ccc3c(N)nc(Cl)nc32)C[C@@H]1OC(=O)CCCc1ccccc1 [Example 60]  HIV-1 wild-type (R8) virus         y
2  C#C[C@]1(CO)O[C@@H](n2ccc3c(NC(=O)CCCCCCC)nc(Cl)nc32)C[C@@H]1O [Example 66]  HIV-1 wild-type (R8) virus         n
3  C#C[C@]1(COC(=O)CCCCCCCCC)O[C@@H](n2ccc3c(N)nc(Cl)nc32)C[C@@H]1O [Example 20]  HIV-1 wild-type (R8) virus         y
4  C#C[C@]1(CO)O[C@@H](n2ccc3c(N)nc(Cl)nc32)C[C@@H]1OC(=O)CCCC[C@@H]1SC[C@@H]2NC(=O)N[C@@H]21 [Example 184]  HIV-1 wild-type (R8) virus         n

---

Assay: Aqueous solubility in PBS, pH 7.4
Type: physicochemical
Conditions: phosphate buffered saline, pH 7.4, aqueous buffer, thermodynamic from solid, pH 7.4 phosphate buffered saline, 24 hours, amorphous or crystalline material; read-out: Aqu. Solubility
Measured solubility at 24 h, listed per entry for reference.
VALUE_KIND: solubility at 24 h

>>> df
                                   molecule     result
0  C#C[C@]1(COC(=O)CCCC)O[C@@H](n2ccc3c(N)nc(Cl)nc32)C[C@@H]1OC(=O)CCCC [Example 7]  < 1 µg/mL
1  C#C[C@]1(COC(=O)OCc2ccn(C)c(=O)c2)O[C@@H](n2ccc3c(N)nc(Cl)nc32)C[C@@H]1OC(=O)OCc1ccn(C)c(=O)c1 [Example 226]   19 µg/mL
2  C#C[C@]1(CO)O[C@@H](n2ccc3c(N)nc(Cl)nc32)C[C@@H]1OC(=O)C(CC)CC [Example 45]   45 µg/mL
3  C#C[C@]1(COC(=O)Cc2ccc(Cl)cc2)O[C@@H](n2ccc3c(N)nc(Cl)nc32)C[C@@H]1OC(=O)Cc1ccc(Cl)cc1 [Example 34]  < 1 µg/mL
4  C#C[C@]1(COC(=O)OCc2cccnc2)O[C@@H](n2ccc3c(N)nc(Cl)nc32)C[C@@H]1CC(=O)CCCc1ccccc1 [Example 173]  < 1 µg/mL
5  C#C[C@]1(COC(=O)CCCC)O[C@@H](n2ccc3c(N)nc(Cl)nc32)C[C@@H]1OC(=O)OC [Example 189]   23 µg/mL
6  C#C[C@]1(COC(=O)CCCC)O[C@@H](n2ccc3c(N)nc(Cl)nc32)C[C@@H]1OC(=O)OCC [Example 146]    7 µg/mL
